- ASSAYED SYSTEM: UniProt P19024
- Sequence (P19024 whole entry): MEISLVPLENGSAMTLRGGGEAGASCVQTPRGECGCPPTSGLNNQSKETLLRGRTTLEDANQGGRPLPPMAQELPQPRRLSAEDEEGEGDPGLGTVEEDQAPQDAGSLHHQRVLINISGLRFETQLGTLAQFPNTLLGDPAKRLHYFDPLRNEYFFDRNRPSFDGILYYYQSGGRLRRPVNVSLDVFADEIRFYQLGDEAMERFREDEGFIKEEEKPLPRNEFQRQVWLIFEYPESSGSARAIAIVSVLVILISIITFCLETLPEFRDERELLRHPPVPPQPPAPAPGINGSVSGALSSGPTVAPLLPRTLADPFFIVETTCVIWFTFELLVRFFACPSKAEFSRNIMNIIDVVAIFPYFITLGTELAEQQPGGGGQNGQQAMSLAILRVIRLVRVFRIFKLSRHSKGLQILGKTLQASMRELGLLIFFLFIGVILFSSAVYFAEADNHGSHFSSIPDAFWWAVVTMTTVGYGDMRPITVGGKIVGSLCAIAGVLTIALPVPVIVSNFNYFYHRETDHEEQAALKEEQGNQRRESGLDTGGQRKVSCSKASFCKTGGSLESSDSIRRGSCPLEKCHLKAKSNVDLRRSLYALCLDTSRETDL
- ASSAY METHOD TEXT: Inhibition of rat Kv1.5 expressed in Xenopus laevis oocytes at 1 uM at -90 mV holding potential by two-electrode voltage clamp assay relative to control
- Assay type: cell-based
The source made the active and inactive calls. The rule behind the calls is not given here.
TEST READOUT: inhibition

These solved cases illustrate the format of a correct answer.
Cc1[nH]c(C(=O)NC/C=C/c2c[nH]c(N)n2)cc1Br: inactive
COc1ccc2[nH]c(C(=O)NC/C=C/c3c[nH]c(N)n3)cc2c1: inactive
Nc1nc(CCCNC(=O)c2cc3ccccc3[nH]2)c[nH]1: inactive
Nc1nc(/C=C/CNC(=O)C2CCNCC2)c[nH]1: inactive
Cc1[nH]c(C(=O)NC/C=C/c2c[nH]c(N)n2)cc1Cl: 72%

Enquiry: Could you share which inhibition value was measured for Nc1nc(/C=C/CNC(=O)c2cc(Br)c[nH]2)c[nH]1 ?
Return: 10%

Enquiry: Which inhibition is listed for Nc1nc(CCCNC(=O)c2cc(Br)c(Br)[nH]2)c[nH]1 ?
Return: inactive

Enquiry: inhibition for Nc1nc(/C=C/CNC(=O)c2cc3cc(F)ccc3[nH]2)c[nH]1 ?
Return: inactive

Enquiry: # query: inhibition of entry CC(C)(C)OC(=O)N1CCC(C(=O)NC/C=C/c2c[nH]c(N)n2)CC1
Return: inactive

Enquiry: State the recorded inhibition for this entry: Nc1nc(/C=C/CNC(=O)c2cc3ccccc3[nH]2)c[nH]1
Return: inactive

Enquiry: Returns the measured inhibition for the input compound. Input: Nc1ncc(/C=C/CNC(=O)c2cc(Br)c(Br)[nH]2)[nH]1
Return: inactive

Measured values drawn from ChEMBL document CHEMBL4190320 for this set.
